Test system: Leptosphaeria nodorum (LEPTNO)
method: In vitro fungitoxicity of hydrazones with and without copper towards Leptosphaeria nodorum (Example 26)
Format: cell-based
cond: copper-plus medium (CuCl2 10 μM); test compound Concn. 0.05 μg/mL; 72 h at 25° C.
readout: LEPTNO % Inhn. Plus Copper Observed (%)
Give the value, in units of %, as a plain number.

Query block: Observed LEPTNO % Inhn. Plus Copper Observed on Leptosphaeria nodorum (LEPTNO) for C/C(=N\NC(=O)c1ccc(Br)cc1)c1cc(Br)cc(Br)c1O [Example 547] , please.
Result block: 97.7

Query block: Query Cc1ccc(C(=O)N/N=C/c2cc(C(F)(F)F)cc(C(F)(F)F)c2O)c(O)c1 [Example 342] next
Result block: 98.3

Query block: Please answer likewise for C/C(=N\NC(=O)c1ccc(C(F)(F)F)cc1)c1ccc(Cl)cc1O [Example 461]
Result block: 96.7

Query block: Item: CC(C)(C)/C(=N\NC(=O)c1ccccc1)c1ccccc1O [Example 592]
Result block: 25.4

Query block: Also check C/C(=N\NC(=O)c1ccccc1C)c1cccc(Cl)c1O [Example 493]
Result block: 97.8

Query block: Another compound: O=C(N/N=C/c1cccc(Cl)c1O)c1ccc(F)cc1 [Example 426]
Result block: 97.3

Query block: What about C/C(=N\NC(=O)c1ccccc1Br)c1cc(Br)ccc1O [Example 519] ?
Result block: 95.7

Query block: // repeat for O=C(N/N=C/c1cc(C(F)(F)F)cc(Cl)c1O)c1ccc(Cl)cc1 [Example 326] and report
Result block: 95.6

Next:
Query block: Return LEPTNO % Inhn. Plus Copper Observed measured with Leptosphaeria nodorum (LEPTNO) given this compound: COc1cc(O)c(/C(C)=N/NC(=O)c2ccc(C)cc2)c(OC)c1 [Example 566]
Result block: 95.9

Query block: Can you handle O=C(N/N=C/c1cc(Cl)c(C(F)(F)F)cc1O)c1ccccc1 [Example 318] next?
Result block: 97.3

Query block: Next record, please: COc1cccc(/C(C)=N/NC(=O)c2ccccc2Br)c1O [Example 467]
Result block: 95.7

Query block: Okay, and O=C(N/N=C/c1cc(C(F)(F)F)ccc1O)c1ccc(F)cc1 [Example 438] ?
Result block: 94.2

Query block: Proceed to COc1ccc(C(=O)N/N=C(\C)c2cc(Cl)cc(Cl)c2O)c(O)c1 [Example 477]
Result block: 83.4

Query block: Next: C/C(=N\NC(=O)c1cccc(Cl)c1)c1cc(C(F)(F)F)ccc1O [Example 532]
Result block: 91.4

Query block: Please answer likewise for Cc1cccc(C(=O)N/N=C/c2c(O)cccc2Cl)c1 [Example 398]
Result block: 94.7

Query block: Try C/C(=N\NC(=O)c1ccccc1)c1cc(C(F)(F)F)ccc1O [Example 527] next.
Result block: 97.6

Query block: // same read-out, input: COc1ccc(/C(C)=N/NC(=O)c2ccc(Cl)cc2)c(O)c1OC [Example 557]
Result block: 95.7

Query block: Repeat with Cc1ccc(C(=O)N/N=C/c2c(O)cccc2Cl)cc1 [Example 399]
Result block: 97.1

* * *

Test system: Leptosphaeria nodorum (LEPTNO)
method: In vitro fungitoxicity of hydrazones with and without copper towards Leptosphaeria nodorum (Example 26)
Assay type: cell-based
cond: copper-plus medium (CuCl2 10 μM); test compound Concn. 0.05 μg/mL; 72 h at 25° C.
readout: LEPTNO % Inhn. Plus Copper Observed (%)
Enter your answer as a number in %; do not include the unit.

# annotated cases, reported LEPTNO % Inhn. Plus Copper Observed shown
Query block: Which value of LEPTNO % Inhn. Plus Copper Observed has been reported for C/C(=N\NC(=O)c1ccc(Br)cc1)c1cccc(Cl)c1O [Example 500] in the records?
Result block: 93.2

Query block: Record: C/C(=N\NC(=O)c1cccc(C)c1)c1cc(C)ccc1O [Example 313]
Result block: 98.5

Query block: Item: C/C(=N\NC(=O)c1ccccc1O)c1ccc(Cl)cc1O [Example 463]
Result block: 96.3

Query block: # iterate: O=C(N/N=C/c1cccc(C(F)(F)F)c1O)c1ccc(F)cc1 [Example 346]
Result block: 96.7

---
Query block: # lookup: LEPTNO % Inhn. Plus Copper Observed of O=C(N/N=C/c1cc(C(F)(F)F)cc(Cl)c1O)c1cccc(F)c1 [Example 323]
Result block: 98.1

Query block: Next compound up: C/C(=N\NC(=O)c1ccccc1O)c1cc(Br)cc(Br)c1O [Example 550]
Result block: 97.2

* * *

Each entry below lists one item and its recorded melting point value.

Consider the worked cases shown below.
Query block: What measured melting point goes with `O=C(N/N=C/c1cc(Cl)ccc1O)c1cccc([N+](=O)[O-])c1` ?
Result block: 224 to 227 °C

Query block: Lookup `C/C(=N\NC(=O)c1ccccc1)c1cc(C(F)(F)F)ccc1O`
Result block: 226 to 229 °C

Query block: What do you get for `COc1cccc(/C(C)=N/NC(=O)c2ccc(C(F)(F)F)cc2)c1O` ?
Result block: 175 to 176 °C

Query block: And then `O=C(N/N=C(\CCc1ccccc1)c1ccccc1O)c1c(Cl)cccc1Cl` , what is it?
Result block: 204 to 208 °C

Query block: Subsequent entry: `C/C(=N\NC(=O)c1ccccc1)c1cc(C)ccc1O`
Result block: 197 to 199 °C

Query block: Could you do the same for `COc1ccc(O)c(/C(C)=N/NC(=O)c2cccc(Cl)c2)c1` , please?
Result block: 190 to 201 °C

Next:
Query block: Which melting point is reported for this compound? `O=C(N/N=C/c1c(C(F)(F)F)ccc(Cl)c1O)c1ccc(F)cc1`
Result block: 231 to 233 °C

Query block: What about this compound? `COc1cc(O)c(/C(C)=N/NC(=O)c2ccc(C)cc2)c(OC)c1`
Result block: 177 to 184 °C

Query block: Follow-up item: `O=C(N/N=C/c1ccc(Cl)cc1O)c1ccccc1O`
Result block: 210 to 213 °C

Query block: For Cc1ccc(C(=O)N/N=C(\CCc2ccccc2)c2ccccc2O)c(C)c1 [Example 35] then?
Result block: 162 to 166 °C

* * *

Tested on: Leptosphaeria nodorum (LEPTNO)
method: In vitro fungitoxicity of hydrazones with and without copper towards Leptosphaeria nodorum (Example 26)
Assay type: cell-based
cond: Parastagonospora nodorum, 72 h, copper-minus medium; test compound Concn. 0.05 μg/mL; 72 h at 25° C.; read-out: LEPTNO % Inhn. Minus Copper Observed
Mark Criterion not met for inhibition of growth at 0.05 µg/mL values under 7%, and Criterion met for everything at or above.

Some entries whose results are on file:
Query block: Quick check: does `C/C(=N\NC(=O)c1cccc(Cl)c1O)c1cc(Cl)cc(Cl)c1O` have inhibition of growth at 0.05 µg/mL greater than or equal to 7%?
Result block: Criterion met

Query block: Could you do the same for `O=C(N/N=C/c1cc(Br)cc(F)c1O)c1ccc(C(F)(F)F)cc1` , please?
Result block: Criterion met

Query block: Can you check `CC(C)(C)/C(=N\NC(=O)c1ccccc1)c1ccccc1O` next?
Result block: Criterion not met

Query block: Try this molecule too: `C/C(=N\NC(=O)c1ccccc1Br)c1cccc([N+](=O)[O-])c1O`
Result block: Criterion met

Query block: Next: `Cc1ccc(C(=O)N/N=C/c2c(Cl)ccc(Cl)c2O)c(O)c1`
Result block: Criterion met

Query block: Same for `O=C(N/N=C/c1c(O)cccc1Cl)c1ccc(F)cc1`
Result block: Criterion not met

Further cases:
Query block: Decide: is the reported value of inhibition of growth at 0.05 µg/mL for `Cc1cccc(C(=O)N/N=C/c2cccc(C(F)(F)F)c2O)c1` equal to or greater than 7%?
Result block: Criterion not met

Query block: Subsequent entry: `C/C(=N\NC(=O)c1ccccc1Br)c1cc(Cl)ccc1O`
Result block: Criterion not met

* * *

Tested on: Phytophthora infestans
Format: in vivo, Phytophthora infestans on tomato
cond: hydrazone 50 ppm + 50 μM CuCl2.2H2O, applied 24 h before inoculation, assessed 7 days after inoculation, tomato
# label = Satisfied if TLB % Control >= 40% else Not satisfied

Query block: Record `C/C(=N\NC(=O)c1ccccc1C)c1cc(Br)ccc1O` ; criterion: TLB % Control no lower than 40%. Met?
Result block: Not satisfied

Others:
Query block: Form field: TLB % Control at least 40%? Entry: `C/C(=N\NC(=O)c1cccc(Oc2ccccc2)c1)c1ccccc1O`
Result block: Not satisfied

Query block: Same for `O=C(N/N=C/c1cc([N+](=O)[O-])ccc1O)c1ccc(Cl)cc1`
Result block: Satisfied

Query block: Next molecule up: `O=C(N/N=C/c1cc(Cl)cc(Cl)c1O)c1ccc([N+](=O)[O-])cc1`
Result block: Satisfied

Query block: Please give the result for `O=C(N/N=C/c1cc(C(F)(F)F)ccc1O)c1ccccc1` too.
Result block: Satisfied

* * *

melting point values, listed per item

Query block: Which melting point reading was recorded for the compound `C/C(=N\NC(=O)c1ccccc1O)c1cc(F)cc(F)c1O` ?
Result block: 308 to 323 °C

Query block: For `O=C(N/N=C/c1cc(Br)cc(Br)c1O)c1cc(Cl)ccc1Br` then?
Result block: 215 to 218 °C

Query block: Lookup `COc1ccc(/C(C)=N/NC(=O)c2ccccc2)c(O)c1OC`
Result block: 154 to 155 °C

Others:
Query block: What melting point value was documented for this compound, `C/C(=N\NC(=O)c1ccccc1C)c1cc(F)cc(F)c1O` ?
Result block: 186 to 188 °C

Query block: Further, for `COc1ccc(/C(C)=N/NC(=O)c2ccccc2C)c(O)c1` ?
Result block: 170 to 172 °C
